system: NCI-H2085; test: relative viability (nuclei count vs DMSO), 5 days (fraction); higher = more cells survive; details: first compound 1 µM
Label condition met when relative viability < 0.5; otherwise condition not met.

{"columns": ["compound", "category_label"],
 "data": [
  ["CCN(CC)CCCCNc1ncc2cc(-c3cc(OC)cc(OC)c3)c(NC(=O)NC(C)(C)C)nc2n1 + Nc1ncn([C@H]2C[C@H](O)[C@@H](CO)O2)c(=O)n1 [Decitabine] (partner 2 µM)", "condition not met"],
  ["O=c1cc(N2CCOCC2)oc2c(-c3cccc4c3sc3ccccc34)cccc12 + CC(C)C[C@H](NC(=O)[C@H](Cc1ccccc1)NC(=O)c1cnccn1)B(O)O [Bortezomib] (partner 0.002 µM)", "condition not met"]
]}

Task: I wonder whether O=c1cc(N2CCOCC2)oc2c(-c3cccc4c3sc3ccccc34)cccc12 + COc1cc2c(Oc3ccc(NC(=O)C4(C(=O)Nc5ccc(F)cc5)CC4)cc3F)ccnc2cc1OCCCN1CCOCC1 [Foretinib] (partner 0.25 µM) has relative viability below 0.5. Can you tell?
Result: condition not met

Task: I wonder whether CCN(CC)CCCCNc1ncc2cc(-c3cc(OC)cc(OC)c3)c(NC(=O)NC(C)(C)C)nc2n1 + CC(=O)c1c(C)c2cnc(Nc3ccc(N4CCNCC4)cn3)nc2n(C2CCCC2)c1=O [Palbociclib] (partner 0.5 µM) has relative viability below 0.5. Can you tell?
Result: condition met

Task: I wonder whether O=c1cc(N2CCOCC2)oc2c(-c3cccc4c3sc3ccccc34)cccc12 + Cc1nc(Nc2ncc(C(=O)Nc3c(C)cccc3Cl)s2)cc(N2CCN(CCO)CC2)n1 [Dasatinib] (partner 0.075 µM) has relative viability below 0.5. Can you tell?
Result: condition met

Task: I wonder whether CCN(CC)CCCCNc1ncc2cc(-c3cc(OC)cc(OC)c3)c(NC(=O)NC(C)(C)C)nc2n1 + CC(C)C[C@H](NC(=O)[C@H](Cc1ccccc1)NC(=O)c1cnccn1)B(O)O [Bortezomib] (partner 0.002 µM) has relative viability below 0.5. Can you tell?
Result: condition not met

Task: I wonder whether CCN(CC)CCCCNc1ncc2cc(-c3cc(OC)cc(OC)c3)c(NC(=O)NC(C)(C)C)nc2n1 + CS(=O)(=O)N1CCN(Cc2cc3nc(-c4cccc5[nH]ncc45)nc(N4CCOCC4)c3s2)CC1 [Pictilisib] (partner 1 µM) has relative viability below 0.5. Can you tell?
Result: condition met

Task: I wonder whether O=c1cc(N2CCOCC2)oc2c(-c3cccc4c3sc3ccccc34)cccc12 + CC(=O)c1c(C)c2cnc(Nc3ccc(N4CCNCC4)cn3)nc2n(C2CCCC2)c1=O [Palbociclib] (partner 0.5 µM) has relative viability below 0.5. Can you tell?
Result: condition met

Task: I wonder whether CCN(CC)CCCCNc1ncc2cc(-c3cc(OC)cc(OC)c3)c(NC(=O)NC(C)(C)C)nc2n1 + C[C@]1(O)C[C@@H](c2nc(-c3ccc4ccc(-c5ccccc5)nc4c3)c3c(N)nccn32)C1 [Linsitinib] (partner 1 µM) has relative viability below 0.5. Can you tell?
Result: condition not met

---

tested on: NCI-H2085; test: relative viability (nuclei count vs DMSO), 5 days (fraction); higher = more cells survive; settings: first compound 0.3162 µM
Here, each record is paired with measured relative viability data.
Number, no unit, nothing else.

Record excerpt, results attached:
{"columns": ["compound", "relative viability"],
 "data": [
  ["O=c1cc(N2CCOCC2)oc2c(-c3cccc4c3sc3ccccc34)cccc12 + Nc1ncn([C@H]2C[C@H](O)[C@@H](CO)O2)c(=O)n1 [Decitabine] (partner 2 µM)", 0.614],
  ["CCN(CC)CCCCNc1ncc2cc(-c3cc(OC)cc(OC)c3)c(NC(=O)NC(C)(C)C)nc2n1 + C[C@@H](Oc1cc(-c2cnn(C3CCNCC3)c2)cnc1N)c1c(Cl)ccc(F)c1Cl [Crizotinib] (partner 1 µM)", 0.895]
]}

Task: Supply relative viability measured with NCI-H2085 for O=c1cc(N2CCOCC2)oc2c(-c3cccc4c3sc3ccccc34)cccc12 + O=C(CCCCCCC(=O)Nc1ccccc1)NO [Vorinostat] (partner 1 µM) .
Result: 0.788

Task: Supply relative viability measured with NCI-H2085 for CCN(CC)CCCCNc1ncc2cc(-c3cc(OC)cc(OC)c3)c(NC(=O)NC(C)(C)C)nc2n1 + CS(=O)(=O)N1CCN(Cc2cc3nc(-c4cccc5[nH]ncc45)nc(N4CCOCC4)c3s2)CC1 [Pictilisib] (partner 1 µM) .
Result: 0.512

Task: Supply relative viability measured with NCI-H2085 for O=c1cc(N2CCOCC2)oc2c(-c3cccc4c3sc3ccccc34)cccc12 + Cc1cc(Nc2cc(N3CCN(C)CC3)nc(Sc3ccc(NC(=O)C4CC4)cc3)n2)n[nH]1 [Tozasertib] (partner 0.1 µM) .
Result: 0.73

---

tested on: NCI-H522; assay: relative viability (nuclei count vs DMSO), 5 days (fraction); higher = more cells survive; conditions: first compound 0.3162 µM
Here, each record is paired with measured relative viability data.
Number, no unit, nothing else.

Task: Given CCN(CC)CCCCNc1ncc2cc(-c3cc(OC)cc(OC)c3)c(NC(=O)NC(C)(C)C)nc2n1 + Nc1ncn([C@H]2C[C@H](O)[C@@H](CO)O2)c(=O)n1 [Decitabine] (partner 2 µM) , respond with its relative viability.
Result: 0.651

Task: Given CCN(CC)CCCCNc1ncc2cc(-c3cc(OC)cc(OC)c3)c(NC(=O)NC(C)(C)C)nc2n1 + N=C(N)NC(=N)NCCc1ccccc1 [Phenformin] (partner 250 µM) , respond with its relative viability.
Result: 0.688

Task: Given O=c1cc(N2CCOCC2)oc2c(-c3cccc4c3sc3ccccc34)cccc12 + CC(=O)Nc1cccc(-n2c(=O)n(C3CC3)c(=O)c3c(Nc4ccc(I)cc4F)n(C)c(=O)c(C)c32)c1 [Trametinib] (partner 0.02 µM) , respond with its relative viability.
Result: 0.684

Task: Given O=c1cc(N2CCOCC2)oc2c(-c3cccc4c3sc3ccccc34)cccc12 + COc1cccc2cc(-c3nc([C@H]4CC[C@H](C(=O)O)CC4)n4ncnc(N)c34)[nH]c12 [OSI-027] (partner 0.5 µM) , respond with its relative viability.
Result: 0.737

---

system: NCI-H650; test: relative viability (nuclei count vs DMSO), 5 days (fraction); higher = more cells survive; details: first compound 8 µM
Here, each record is paired with measured relative viability data.
Number, no unit, nothing else.

{"columns": ["compound", "relative viability"],
 "data": [
  ["O=c1cc(-c2cccc3c2Sc2ccccc2S3)oc(N2CCOCC2)c1 + O=C(c1cc(Cc2n[nH]c(=O)c3ccccc23)ccc1F)N1CCN(C(=O)C2CC2)CC1 [Olaparib] (partner 8 µM)", 0.415],
  ["O=c1cc(-c2cccc3c2Sc2ccccc2S3)oc(N2CCOCC2)c1 + C[C@]1(O)C[C@@H](c2nc(-c3ccc4ccc(-c5ccccc5)nc4c3)c3c(N)nccn32)C1 [Linsitinib] (partner 1 µM)", 0.7],
  ["O=c1cc(-c2cccc3c2Sc2ccccc2S3)oc(N2CCOCC2)c1 + N=C(N)NC(=N)NCCc1ccccc1 [Phenformin] (partner 250 µM)", 0.452],
  ["O=c1cc(-c2cccc3c2Sc2ccccc2S3)oc(N2CCOCC2)c1 + Cc1nc(NC(=O)N2CCC[C@H]2C(N)=O)sc1-c1ccnc(C(C)(C)C(F)(F)F)c1 [Alpelisib] (partner 2 µM)", 1.08]
]}

Task: Given O=c1cc(-c2cccc3c2Sc2ccccc2S3)oc(N2CCOCC2)c1 + CS(=O)(=O)N1CCN(Cc2cc3nc(-c4cccc5[nH]ncc45)nc(N4CCOCC4)c3s2)CC1 [Pictilisib] (partner 1 µM) , respond with its relative viability.
Result: 0.767

---

Here, each record is paired with measured relative viability data.
test system: NCI-H460; assay: relative viability (nuclei count vs DMSO), 5 days (fraction); higher = more cells survive; conditions: first compound 0.01 µM
Number, no unit, nothing else.

{"columns": ["compound", "experimental_target", "relative viability"],
 "data": [
  ["O=c1cc(N2CCOCC2)oc2c(-c3cccc4c3sc3ccccc34)cccc12 + COc1cccc2cc(-c3nc([C@H]4CC[C@H](C(=O)O)CC4)n4ncnc(N)c34)[nH]c12 [OSI-027] (partner 0.5 µM)", "NCI-H460", 0.659]
]}

Consider the record given below.
Task: Given CCN(CC)CCCCNc1ncc2cc(-c3cc(OC)cc(OC)c3)c(NC(=O)NC(C)(C)C)nc2n1 + Cc1cc(Nc2cc(N3CCN(C)CC3)nc(Sc3ccc(NC(=O)C4CC4)cc3)n2)n[nH]1 [Tozasertib] (partner 0.1 µM) , respond with its relative viability.
Result: 0.458

---

Here, each record is paired with measured relative viability data.
tested on: CAL-12T; assay: relative viability (nuclei count vs DMSO), 5 days (fraction); higher = more cells survive; details: first compound 0.3162 µM
Number, no unit, nothing else.

Record excerpt, results attached:
{"columns": ["compound", "experimental_target", "data_value"],
 "data": [
  ["O=c1cc(N2CCOCC2)oc2c(-c3cccc4c3sc3ccccc34)cccc12 + Cc1cc(Nc2cc(N3CCN(C)CC3)nc(Sc3ccc(NC(=O)C4CC4)cc3)n2)n[nH]1 [Tozasertib] (partner 0.1 µM)", "CAL-12T", 0.277],
  ["O=c1cc(N2CCOCC2)oc2c(-c3cccc4c3sc3ccccc34)cccc12 + COc1cc2c(Oc3ccc(NC(=O)C4(C(=O)Nc5ccc(F)cc5)CC4)cc3F)ccnc2cc1OCCCN1CCOCC1 [Foretinib] (partner 0.25 µM)", "CAL-12T", 1.03],
  ["O=c1cc(N2CCOCC2)oc2c(-c3cccc4c3sc3ccccc34)cccc12 + CS(=O)(=O)N1CCN(Cc2cc3nc(-c4cccc5[nH]ncc45)nc(N4CCOCC4)c3s2)CC1 [Pictilisib] (partner 1 µM)", "CAL-12T", 0.551],
  ["CCN(CC)CCCCNc1ncc2cc(-c3cc(OC)cc(OC)c3)c(NC(=O)NC(C)(C)C)nc2n1 + C[C@]1(O)C[C@@H](c2nc(-c3ccc4ccc(-c5ccccc5)nc4c3)c3c(N)nccn32)C1 [Linsitinib] (partner 1 µM)", "CAL-12T", 0.906],
  ["O=c1cc(N2CCOCC2)oc2c(-c3cccc4c3sc3ccccc34)cccc12 + CC(C)C[C@H](NC(=O)[C@H](Cc1ccccc1)NC(=O)c1cnccn1)B(O)O [Bortezomib] (partner 0.002 µM)", "CAL-12T", 1.01]
]}

Consider the record given below.
Task: Given CCN(CC)CCCCNc1ncc2cc(-c3cc(OC)cc(OC)c3)c(NC(=O)NC(C)(C)C)nc2n1 + N=C(N)NC(=N)NCCc1ccccc1 [Phenformin] (partner 250 µM) , respond with its relative viability.
Result: 0.726
